Below are compounds with their MIC as measured on Klebsiella pneumoniae.
Number in µg/mL, nothing else.

Worked cases, MIC given:
compound	MIC (µg/mL)
Cc1nnc(SCC2=C(C(=O)O)N3C(=O)C(NC(=O)[C@H](NC(=O)c4c(O)cccc4O)c4ccc(O)cc4)C3SC2)s1 (stereo partly shown) [Example 5]	29.5
Cc1nnc(SCC2=C(C(=O)O)N3C(=O)C(NC(=O)[C@H](NC(=O)c4cc(O)c(O)c(O)c4)c4ccc(O)cc4)C3SC2)s1 (stereo partly shown) [Example 6]	3.9
Cc1nnc(SCC2=C(C(=O)O)N3C(=O)C(NC(=O)[C@H](NC(=O)c4cccc(O)c4)c4ccc(O)cc4)C3SC2)s1 (stereo partly shown) [Example 10]	16.8
Cc1nnc(SCC2=C(C(=O)O)N3C(=O)C(NC(=O)[C@H](NC(=O)c4ccc(O)c(O)c4O)c4ccc(O)cc4)C3SC2)s1 (stereo partly shown) [Example 7]	52.5
Cn1nnnc1SCC1=C(C(=O)O)N2C(=O)C(NC(=O)[C@H](NC(=O)c3cc(O)ccc3O)c3ccc(O)cc3)C2SC1 (stereo partly shown) [Example 15]	32.2

Let's switch to this compound now.
Exercise: Report MIC for Cn1nnnc1SCC1=C(C(=O)O)N2C(=O)C(NC(=O)[C@H](NC(=O)c3cccc(O)c3O)c3ccccc3)C2SC1 (stereo partly shown) [Example 1] tested on Klebsiella pneumoniae.
Key: 10

---

Experiment: Titration (pKa)
Format: physicochemical
Settings: 66% dmf-34% h2o, titration (66% DMF-34% H2O); first pKa; read-out: pKa (first value)
metric: pKa
Answer as a number with no unit attached.

Worked cases, pKa given:
>>> df
                                   molecule  result_value
0  CC(=O)OCC1=C(C(=O)O)N2C(=O)C(NC(=O)C(NC(=O)c3cccc(O)c3O)c3ccccc3)C2SC1 (stereo not shown) [Example 19]             5
1  Cc1nnc(SCC2=C(C(=O)O)N3C(=O)C(NC(=O)[C@H](NC(=O)c4cccc(O)c4)c4ccc(O)cc4)C3SC2)s1 (stereo partly shown) [Example 10]          5.02
2  Cc1nnc(SCC2=C(C(=O)O)N3C(=O)C(NC(=O)[C@H](NC(=O)c4cc(O)c(O)c(O)c4)c4ccc(O)cc4)C3SC2)s1 (stereo partly shown) [Example 6]          4.88

Exercise: Need pKa, item Cc1nnc(SCC2=C(C(=O)O)N3C(=O)C(NC(=O)[C@H](NC(=O)c4ccc(O)c(Cl)c4)c4ccc(O)cc4)C3SC2)s1 (stereo partly shown) [Example 11]
Key: 4.9

---

Tested on: Klebsiella pneumoniae
metric: MIC (µg/mL)
Number in µg/mL, nothing else.

Exercise: Report MIC for Cn1nnnc1SCC1=C(C(=O)O)N2C(=O)C(NC(=O)[C@H](NC(=O)c3ccccc3O)c3ccc(O)cc3)C2SC1 (stereo partly shown) tested on Klebsiella pneumoniae.
Key: 29

---

Each record here notes measured pKa.
Experiment: Titration (pKa)
Assay type: physicochemical
Settings: 66% dmf-34% h2o, titration (66% DMF-34% H2O); first pKa; read-out: pKa (first value)
Answer as a number with no unit attached.

>>> df
                                   compound  result_value
0  Cc1nnc(SCC2=C(C(=O)O)N3C(=O)C(NC(=O)[C@H](NC(=O)c4cc(O)c(O)c(O)c4O)c4ccc(O)cc4)C3SC2)s1 (stereo partly drawn)          4.98

Exercise: Need pKa, item Cn1nnnc1SCC1=C(C(=O)O)N2C(=O)C(NC(=O)[C@H](NC(=O)c3ccccc3O)c3ccc(O)cc3)C2SC1 (stereo partly drawn)
Key: 5.09

---

System: Serratia marcescens
Experiment: Antibiotic activity (MIC), Gradient Plate in vitro method, Serratia marcescens
Assay type: cell-based
Details: read-out: Minimum Inhibitory Concentration
metric: MIC

Worked cases, MIC given:
                                   compound  result_value
0  Cc1nnc(SCC2=C(C(=O)O)N3C(=O)C(NC(=O)[C@H](NC(=O)c4c(O)cc(O)cc4O)c4ccc(O)cc4)C3SC2)s1 (stereo partly drawn)   > 200 µg/mL
1  Cc1nnc(SCC2=C(C(=O)O)N3C(=O)C(NC(=O)[C@H](NC(=O)c4cc(O)c(O)c(O)c4)c4ccc(O)cc4)C3SC2)s1 (stereo partly drawn)   > 200 µg/mL
2  Cc1nnc(SCC2=C(C(=O)O)N3C(=O)C(NC(=O)[C@H](NC(=O)c4ccc(N)c(N)c4)c4ccc(O)cc4)C3SC2)s1 (stereo partly drawn)     116 µg/mL
3  Cn1nnnc1SCC1=C(C(=O)O)N2C(=O)C(NC(=O)[C@H](NC(=O)c3ccc(O)c(O)c3)c3ccc(O)cc3)C2SC1 (stereo partly drawn)   > 200 µg/mL
4  Cn1nnnc1SCC1=C(C(=O)O)N2C(=O)C(NC(=O)[C@H](NC(=O)c3ccc(O)cc3O)c3ccc(O)cc3)C2SC1 (stereo partly drawn)   > 200 µg/mL

Let's switch to this compound now.
Exercise: Need MIC, item Cn1nnnc1SCC1=C(C(=O)O)N2C(=O)C(NC(=O)[C@H](NC(=O)c3cccc(O)c3O)c3ccccc3)C2SC1 (stereo partly drawn)
Key: 16.4 µg/mL

---

System: Serratia marcescens
Assay: Antibiotic activity (MIC), Gradient Plate in vitro method, Serratia marcescens
Format: cell-based
Details: read-out: Minimum Inhibitory Concentration
metric: MIC

In [3]: df
Out[3]:
                                   compound  result_value
0  Cc1nnc(SCC2=C(C(=O)O)N3C(=O)C(NC(=O)[C@H](NC(=O)c4c(O)cccc4O)c4ccc(O)cc4)C3SC2)s1 (stereo partly shown)   > 200 µg/mL
1  Cn1nnnc1SCC1=C(C(=O)O)N2C(=O)C(NC(=O)[C@H](NC(=O)c3cc(O)cc(O)c3)c3ccc(O)cc3)C2SC1 (stereo partly shown)   > 200 µg/mL
2  Cc1nnc(SCC2=C(C(=O)O)N3C(=O)C(NC(=O)[C@H](NC(=O)c4cccc(O)c4)c4ccc(O)cc4)C3SC2)s1 (stereo partly shown)   > 200 µg/mL
3  CC(=O)OCC1=C(C(=O)O)N2C(=O)C(NC(=O)C(NC(=O)c3cccc(O)c3O)c3ccccc3)C2SC1 (stereo not shown)   > 200 µg/mL

Exercise: Need MIC, item Cn1c(SCC2=C(C(=O)O)N3C(=O)C(NC(=O)[C@H](NC(=O)c4cccc(O)c4O)c4ccc(O)cc4)C3SC2)nnc(O)c1=O (stereo partly shown)
Key: > 200 µg/mL

---

Assay: Titration (pKa)
Type: physicochemical
Details: 66% dmf-34% h2o, titration (66% DMF-34% H2O); first pKa; read-out: pKa (first value)
Each record here notes measured pKa.
Answer as a number with no unit attached.

compound	pKa
Cn1c(SCC2=C(C(=O)O)N3C(=O)C(NC(=O)[C@H](NC(=O)c4cccc(O)c4O)c4ccc(O)cc4)C3SC2)nnc(O)c1=O (stereo partly drawn) [Example 9]	4.99
Cn1nnnc1SCC1=C(C(=O)O)N2C(=O)C(NC(=O)[C@H](NC(=O)c3cccc(O)c3O)c3ccc(O)cc3)C2SC1 (stereo partly drawn) [Example 3]	5.02

Let's switch to this compound now.
Exercise: Need pKa, item Cn1nnnc1SCC1=C(C(=O)O)N2C(=O)C(NC(=O)[C@H](NC(=O)c3ccc(O)cc3O)c3ccc(O)cc3)C2SC1 (stereo partly drawn) [Example 17]
Key: 4.97

---

Each record here notes measured MIC.
Test system: V32 (penicillin resistant Staphylococcus)
Assay: Antibiotic activity (MIC), Gradient Plate in vitro method, V32
Format: cell-based
Conditions: Gradient Plate in vitro; V32, penicillin resistant Staphylococcus; read-out: Minimum Inhibitory Concentration

Worked cases, MIC given:
In [3]: df
Out[3]:
                                   compound                                    system  result_value
0  CC(=O)OCC1=C(C(=O)O)N2C(=O)C(NC(=O)C(NC(=O)c3cccc(O)c3O)c3ccccc3)C2SC1 (stereo not drawn)  V32 (penicillin resistant Staphylococcus)    16.2 µg/mL
1  Cc1nnc(SCC2=C(C(=O)O)N3C(=O)C(NC(=O)[C@H](NC(=O)c4ccc(O)c(O)c4O)c4ccc(O)cc4)C3SC2)s1 (stereo partly drawn)  V32 (penicillin resistant Staphylococcus)      60 µg/mL

Let's switch to this compound now.
Exercise: Need MIC, item Cc1nnc(SCC2=C(C(=O)O)N3C(=O)C(NC(=O)[C@H](NC(=O)c4cc(O)c(O)c(O)c4O)c4ccc(O)cc4)C3SC2)s1 (stereo partly drawn)
Key: 7.1 µg/mL

---

Tested on: V32 (penicillin resistant Staphylococcus)
Assay: Antibiotic activity (MIC), Gradient Plate in vitro method, V32
Type: cell-based
Conditions: Gradient Plate in vitro; V32, penicillin resistant Staphylococcus; read-out: Minimum Inhibitory Concentration
metric: log10 of MIC (log10 of the value in µg/mL)
Friendly reminder: values = log10 of MIC, unit µg/mL.

Worked cases, log10 of MIC given:
>>> print(df.to_string())
                                   compound                                    system  result_value
0  Cn1nnnc1SCC1=C(C(=O)O)N2C(=O)C(NC(=O)[C@H](NC(=O)c3cc(O)cc(O)c3)c3ccc(O)cc3)C2SC1 (stereo partly shown)  V32 (penicillin resistant Staphylococcus)          0.28
1  Cc1nnc(SCC2=C(C(=O)O)N3C(=O)C(NC(=O)[C@H](NC(=O)c4ccc(N)c(N)c4)c4ccc(O)cc4)C3SC2)s1 (stereo partly shown)  V32 (penicillin resistant Staphylococcus)          0.72
2  Cn1nnnc1SCC1=C(C(=O)O)N2C(=O)C(NC(=O)[C@H](NC(=O)c3ccc(O)cc3O)c3ccc(O)cc3)C2SC1 (stereo partly shown)  V32 (penicillin resistant Staphylococcus)          0.54
3  Cn1nnnc1SCC1=C(C(=O)O)N2C(=O)C(NC(=O)[C@H](NC(=O)c3cc(O)ccc3O)c3ccc(O)cc3)C2SC1 (stereo partly shown)  V32 (penicillin resistant Staphylococcus)          1.11
4  O=C(O)C1=C(Cl)CSC2C(NC(=O)[C@H](NC(=O)c3cccc(O)c3O)c3ccccc3)C(=O)N12 (stereo partly shown)  V32 (penicillin resistant Staphylococcus)          1.33

Exercise: Need log10 of MIC, item Cc1nnc(SCC2=C(C(=O)O)N3C(=O)C(NC(=O)[C@H](NC(=O)c4c(O)cccc4O)c4ccc(O)cc4)C3SC2)s1 (stereo partly shown)
Key: 0.66

Exercise: Need log10 of MIC, item Cc1nnc(SCC2=C(C(=O)O)N3C(=O)C(NC(=O)[C@H](NC(=O)c4ccc(O)c(Cl)c4)c4ccc(O)cc4)C3SC2)s1 (stereo partly shown)
Key: 0.04

Exercise: Need log10 of MIC, item Cn1nnnc1SCC1=C(C(=O)O)N2C(=O)C(NC(=O)[C@H](NC(=O)c3ccc(O)c(O)c3)c3ccc(O)cc3)C2SC1 (stereo partly shown)
Key: 0.58

Exercise: Need log10 of MIC, item Cn1c(SCC2=C(C(=O)O)N3C(=O)C(NC(=O)[C@H](NC(=O)c4cccc(O)c4O)c4ccc(O)cc4)C3SC2)nnc(O)c1=O (stereo partly shown)
Key: 1.15

Exercise: Need log10 of MIC, item NC(=O)OCC1=C(C(=O)O)N2C(=O)C(NC(=O)C(NC(=O)c3cccc(O)c3O)c3ccccc3)C2SC1 (stereo not shown)
Key: 0.87

Exercise: Need log10 of MIC, item Cn1nnnc1SCC1=C(C(=O)O)N2C(=O)C(NC(=O)[C@H](NC(=O)c3cccc(O)c3O)c3ccc(O)cc3)C2SC1 (stereo partly shown)
Key: 1.36

Exercise: Need log10 of MIC, item Cn1nnnc1SCC1=C(C(=O)O)N2C(=O)C(NC(=O)[C@H](NC(=O)c3cccc(O)c3O)c3ccccc3)C2SC1 (stereo partly shown)
Key: 2.12

Exercise: Need log10 of MIC, item Cc1nnc(SCC2=C(C(=O)O)N3C(=O)C(NC(=O)[C@H](NC(=O)c4cc(O)c(O)c(O)c4)c4ccc(O)cc4)C3SC2)s1 (stereo partly shown)
Key: 0.93
